Source: paper PMC2746412

# System: GFP-hSERT (Homo sapiens, UniProt P31645)
# Sequence (P31645 whole entry): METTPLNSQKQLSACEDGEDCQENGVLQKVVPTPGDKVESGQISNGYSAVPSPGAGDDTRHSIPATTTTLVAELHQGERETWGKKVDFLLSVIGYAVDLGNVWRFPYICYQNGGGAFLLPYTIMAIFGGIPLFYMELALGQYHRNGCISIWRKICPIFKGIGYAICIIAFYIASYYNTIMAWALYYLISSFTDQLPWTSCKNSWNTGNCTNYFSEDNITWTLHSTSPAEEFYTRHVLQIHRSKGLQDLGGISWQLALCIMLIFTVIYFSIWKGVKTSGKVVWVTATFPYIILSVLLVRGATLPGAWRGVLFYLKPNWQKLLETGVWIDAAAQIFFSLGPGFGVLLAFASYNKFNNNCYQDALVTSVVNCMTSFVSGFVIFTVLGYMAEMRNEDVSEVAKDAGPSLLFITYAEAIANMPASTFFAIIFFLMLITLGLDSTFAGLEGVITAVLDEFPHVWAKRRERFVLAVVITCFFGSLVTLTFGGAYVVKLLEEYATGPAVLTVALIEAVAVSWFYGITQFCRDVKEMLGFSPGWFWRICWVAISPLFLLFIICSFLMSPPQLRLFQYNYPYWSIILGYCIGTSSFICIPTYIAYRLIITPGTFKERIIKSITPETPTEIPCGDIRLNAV
# Experiment Summary: Inhibition of [3H]-serotonin uptake in transfected COS-7 cells
# Format: cell-based
# Settings: read-out: IC50 for inhibiting serotonin uptake, hSERT
Measurement Label: IC50 (nM)
The answer is to be given in nM; state only the numeric part.

GET /value?item= COC(=O)[C@H]1C(c2ccc(I)cc2)C[C@@H]2CC[C@H]1N2C (stereo partly shown) &field=IC50 returns 10

----------
# System: GFP-hSERT (Homo sapiens)
# Experiment Summary: Inhibition of [3H]-serotonin uptake in transfected COS-7 cells
# Assay type: cell-based
Catalogue of compounds with associated IC50
The answer is to be given in µM; state only the numeric part.

Some entries whose results are on file:
COc1ccc2[nH]cc(C3=CCNCC3)c2c1 : 8.5
NCCc1c[nH]c2ccccc12 : 1.4

GET /value?item= CSc1ccc2c(c1)C(N1CCN(C)CC1)Cc1ccccc1S2 (stereo not shown) [Methiothepin] &field=IC50 returns 6.7

GET /value?item= O=[N+]([O-])c1ccc2nc(N3CCNCC3)ccc2c1 &field=IC50 returns 0.002

----------
# System: GFP-SmSERT-A (Schistosoma mansoni)
# Experiment Summary: cell-based
# Type: cell-based
T if IC50 is below 20 µM. F if not; exact matches included in F.

Reference set (4 entries):
COc1ccc2[nH]cc(C3=CCNCC3)c2c1 : F
O=[N+]([O-])c1ccc2nc(N3CCNCC3)ccc2c1 : T
CSc1ccc2c(c1)C(N1CCN(C)CC1)Cc1ccccc1S2 (stereo not drawn) [Methiothepin] : T
COC(=O)[C@H]1[C@@H](OC(=O)c2ccccc2)C[C@@H]2CC[C@H]1N2C : F

// switching to the query compound
[ask] Dear colleague, could you confirm whether IC50 of CN(C)CCCN1c2ccccc2CCc2ccccc21 falls below 20 µM? Thanks.
[reply] T
